Source listed as paper PMC9482650.

Biological target: T1, LIN7C, Q9NUP9
T1 sequence (Q9NUP9 88-185, limits assumed, looked up): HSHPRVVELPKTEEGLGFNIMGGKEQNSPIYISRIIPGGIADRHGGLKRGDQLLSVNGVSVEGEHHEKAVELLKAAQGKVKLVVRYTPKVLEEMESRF
Experiment: holdup assay
Parameters: key: below the threshold = too weak to quantify, mostly under pKd 3.1 to 4
Conditions: plain residues with an end cap or a label only (N-terminal biotin on a linker: ttds)
metric: pKd

For orientation, consider the following solved cases.
KQVVPFSSSV [GDA, Q9Y2T3]    below the threshold
FVETQHQTQV [FAT3, Q8TDW7]    below the threshold
PSRDRKETSI [RALBP1, Q15311]    3.9
DLDEEEDTHL [PODXL, O00592]    below the threshold
SHSSKGETAV [FZD7, O75084]    4.03

## Task I have this binder here, GARVSKETPL [MAPK12, P53778] , and I need its recorded pKd.
## Result below the threshold

## Task Tell me the measured pKd of QRPYRRESEI [KCNJ12, Q14500] , please.
## Result below the threshold
